Test: Evaluation of solubilities of photoinitiators in cationic active diluents
Type: physicochemical
Details: diluent Epoxy resin 6110: 3.4-epoxycyclohexylmethyl-3,4-epoxycyclohexyl carboxylate
A collection of compounds and their measured Solubility in Epoxy resin 6110
Endpoint: Solubility in Epoxy resin 6110

{"columns": ["Compound", "Endpoint", "Assay Result"],
 "data": [
  ["CCOC(=O)C(=O)c1ccc(Oc2ccc([S+](c3ccccc3)c3ccccc3)cc2)cc1 [Compound 2]", "Solubility in Epoxy resin 6110", ">10%"],
  ["COC(=O)C(=O)c1ccc(Sc2ccc([S+](c3ccc(Sc4ccc(C(=O)C(=O)OC)cc4)cc3)c3ccc(Sc4ccc(C(=O)C(=O)OC)cc4)cc3)cc2)cc1 [Compound 1]", "Solubility in Epoxy resin 6110", ">10%"],
  ["[F][Sb-]([F])([F])([F])([F])[F].[F][Sb-]([F])([F])([F])([F])[F].c1ccc([S+](c2ccccc2)c2ccc(Sc3ccc([S+](c4ccccc4)c4ccccc4)cc3)cc2)cc1 [UVI6976, reference compound]", "Solubility in Epoxy resin 6110", "<2%"],
  ["CCOC(=O)C(=O)c1ccc(Oc2ccc([S+](c3ccc(C)cc3)c3ccc(C)cc3)cc2)cc1 [Compound 7]", "Solubility in Epoxy resin 6110", ">10%"]
]}
